Assay: Drug uptake in mouse plasma at 10 mg/kg, po after 2 hrs
Type: ADME, organism-based

Smiles str	concentration at 2 h, nM
C=CC(=O)Nc1cc(Nc2ncc(Cl)c(Nc3ccccc3S(=O)(=O)C(C)C)n2)c(OC)cc1N(C)CCN(C)C	150

###

Target: CYP2C9 (Homo sapiens, UniProt P11712)
Sequence (P11712 whole entry): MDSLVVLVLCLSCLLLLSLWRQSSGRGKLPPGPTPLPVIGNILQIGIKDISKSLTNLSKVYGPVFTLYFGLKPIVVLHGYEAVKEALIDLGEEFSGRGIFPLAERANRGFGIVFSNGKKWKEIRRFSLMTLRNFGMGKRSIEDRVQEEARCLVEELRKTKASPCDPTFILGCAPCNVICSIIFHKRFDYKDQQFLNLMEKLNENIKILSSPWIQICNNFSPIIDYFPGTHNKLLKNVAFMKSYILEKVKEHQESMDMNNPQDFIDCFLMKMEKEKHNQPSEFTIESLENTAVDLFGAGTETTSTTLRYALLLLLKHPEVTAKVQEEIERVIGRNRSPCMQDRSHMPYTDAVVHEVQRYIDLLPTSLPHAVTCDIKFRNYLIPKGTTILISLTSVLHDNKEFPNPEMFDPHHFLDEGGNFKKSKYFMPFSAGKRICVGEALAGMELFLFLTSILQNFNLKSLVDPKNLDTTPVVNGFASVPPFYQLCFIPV
Assay: Residual activity of CYP2C9 in human liver microsomes at 10 uM using tolbutamide 4-hydroxylase as substrate preincubated for 5 mins followed by NADPH addition measured after 15 mins by LC/MS/MS analysis relative to control
Conditions: probe tolbutamide (4-hydroxylation)

Smiles str	Activity at […], 10 µM
C=CC(=O)Nc1cc(Nc2ncc(Cl)c(Nc3ccccc3P(C)(C)=O)n2)c(OC)cc1N(C)CCN(C)C	> 100%
C=CC(=O)Nc1cc(Nc2ncc(I)c(Nc3ccccc3P(C)(C)=O)n2)c(OC)cc1N(C)CCN(C)C	> 100%
C=CC(=O)Nc1cc(Nc2ncc(Cl)c(Nc3ccccc3S(=O)(=O)C(C)C)n2)c(OC)cc1N(C)CCN(C)C	83%
C=CC(=O)Nc1cc(Nc2nccc(Nc3ccccc3S(=O)(=O)N(C)C)n2)c(OC)cc1N(C)CCN(C)C	88%
C=CC(=O)Nc1cc(Nc2ncc(I)c(Nc3ccccc3S(=O)(=O)N(C)C)n2)c(OC)cc1N(C)CCN(C)C	85%
C=CC(=O)Nc1cc(Nc2ncc(I)c(Nc3ccccc3S(=O)(=O)C(C)C)n2)c(OC)cc1N(C)CCN(C)C	88%
C=CC(=O)Nc1cc(Nc2nccc(Nc3ccccc3P(C)(C)=O)n2)c(OC)cc1N(C)CCN(C)C	90%
C=CC(=O)Nc1cc(Nc2ncc(F)c(Nc3ccccc3P(C)(C)=O)n2)c(OC)cc1N(C)CCN(C)C	> 100%
C=CC(=O)Nc1cc(Nc2ncc(Cl)c(Nc3ccccc3S(=O)(=O)N(C)C)n2)c(OC)cc1N(C)CCN(C)C	59%
C=CC(=O)Nc1cc(Nc2ncc(F)c(Nc3ccccc3S(=O)(=O)C(C)C)n2)c(OC)cc1N(C)CCN(C)C	94%
C=CC(=O)Nc1cc(Nc2nccc(Nc3ccccc3S(=O)(=O)C(C)C)n2)c(OC)cc1N(C)CCN(C)C	90%
C=CC(=O)Nc1cc(Nc2ncc(F)c(Nc3ccccc3S(=O)(=O)N(C)C)n2)c(OC)cc1N(C)CCN(C)C	88%

###

Biological target: Receptor tyrosine-protein kinase erbB-2 (Homo sapiens)
Sequence (P04626 whole entry, the tested form may be a part): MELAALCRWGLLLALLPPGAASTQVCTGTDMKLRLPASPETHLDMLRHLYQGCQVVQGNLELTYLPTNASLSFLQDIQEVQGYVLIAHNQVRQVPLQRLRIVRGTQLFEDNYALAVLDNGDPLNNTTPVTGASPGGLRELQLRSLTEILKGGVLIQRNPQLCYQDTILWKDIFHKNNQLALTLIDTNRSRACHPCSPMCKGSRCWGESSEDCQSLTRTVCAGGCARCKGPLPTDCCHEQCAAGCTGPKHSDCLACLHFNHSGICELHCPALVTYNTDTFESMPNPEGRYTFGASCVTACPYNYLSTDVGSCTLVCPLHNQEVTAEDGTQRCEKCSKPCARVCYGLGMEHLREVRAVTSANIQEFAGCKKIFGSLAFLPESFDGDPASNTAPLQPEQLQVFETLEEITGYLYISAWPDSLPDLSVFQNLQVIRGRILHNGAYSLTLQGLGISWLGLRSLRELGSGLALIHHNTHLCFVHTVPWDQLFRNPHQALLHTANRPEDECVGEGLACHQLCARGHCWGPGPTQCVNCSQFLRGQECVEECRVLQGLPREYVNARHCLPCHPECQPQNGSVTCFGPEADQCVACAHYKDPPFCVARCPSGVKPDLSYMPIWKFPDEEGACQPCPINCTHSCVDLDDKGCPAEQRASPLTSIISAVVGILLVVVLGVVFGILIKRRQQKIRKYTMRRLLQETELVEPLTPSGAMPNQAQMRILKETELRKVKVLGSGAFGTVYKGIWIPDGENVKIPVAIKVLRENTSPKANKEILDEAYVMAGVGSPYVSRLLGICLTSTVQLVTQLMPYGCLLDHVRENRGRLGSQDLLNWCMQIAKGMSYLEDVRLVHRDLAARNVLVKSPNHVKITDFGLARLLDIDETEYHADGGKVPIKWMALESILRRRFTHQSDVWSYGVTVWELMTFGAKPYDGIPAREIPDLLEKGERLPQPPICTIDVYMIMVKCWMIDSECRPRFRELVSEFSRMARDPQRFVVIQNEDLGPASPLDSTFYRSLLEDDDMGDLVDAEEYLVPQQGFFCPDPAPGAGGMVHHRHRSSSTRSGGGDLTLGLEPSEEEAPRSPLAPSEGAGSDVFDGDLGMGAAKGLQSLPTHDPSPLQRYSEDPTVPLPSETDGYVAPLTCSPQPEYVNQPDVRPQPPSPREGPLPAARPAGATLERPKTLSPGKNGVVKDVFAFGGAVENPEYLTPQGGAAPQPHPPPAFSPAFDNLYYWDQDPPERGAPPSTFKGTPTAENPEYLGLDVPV
Assay: Inhibition of recombinant His-tagged human ErbB2 cytoplasmic domain expressed in baculovirus expression system by Z-LYTE assay
Observed property: IC50 (nM)

Smiles str	Unit abbreviation	Test value
C=CC(=O)Nc1cc(Nc2ncc(Cl)c(Nc3ccccc3S(=O)(=O)C(C)C)n2)c(OC)cc1N(C)CCN(C)C	nM	37

###

Each entry below carries its reported Activity at […], 10 µM.
Molecular target: UniProt:P33261
Sequence (P33261 whole entry): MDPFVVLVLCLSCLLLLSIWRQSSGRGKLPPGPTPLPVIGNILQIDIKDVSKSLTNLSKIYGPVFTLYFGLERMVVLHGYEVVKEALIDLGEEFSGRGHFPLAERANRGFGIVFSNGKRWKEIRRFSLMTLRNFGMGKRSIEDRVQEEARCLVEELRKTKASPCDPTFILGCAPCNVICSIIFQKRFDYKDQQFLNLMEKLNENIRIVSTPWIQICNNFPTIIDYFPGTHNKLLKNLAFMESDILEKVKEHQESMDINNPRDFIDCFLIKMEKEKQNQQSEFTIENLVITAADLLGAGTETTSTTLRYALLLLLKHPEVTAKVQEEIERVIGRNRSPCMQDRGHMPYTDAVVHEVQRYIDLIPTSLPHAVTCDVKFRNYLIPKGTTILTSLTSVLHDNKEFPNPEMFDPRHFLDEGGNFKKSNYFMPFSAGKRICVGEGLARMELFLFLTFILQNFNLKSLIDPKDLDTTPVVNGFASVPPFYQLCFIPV
Experiment: Residual activity of CYP2C19 in human liver microsomes at 10 uM using S-mephenytoin 4-hydroxylase as substrate preincubated for 5 mins followed by NADPH addition measured after 15 mins by LC/MS/MS analysis relative to control
Details: probe S-mephenytoin (4-hydroxylation)
Observed property: Activity at […], 10 µM

Smiles str	Observed property	Test value
C=CC(=O)Nc1cc(Nc2ncc(F)c(Nc3ccccc3S(=O)(=O)N(C)C)n2)c(OC)cc1N(C)CCN(C)C	Activity at […], 10 µM	91%
C=CC(=O)Nc1cc(Nc2ncc(I)c(Nc3ccccc3S(=O)(=O)N(C)C)n2)c(OC)cc1N(C)CCN(C)C	Activity at […], 10 µM	67%
C=CC(=O)Nc1cc(Nc2ncc(Cl)c(Nc3ccccc3P(C)(C)=O)n2)c(OC)cc1N(C)CCN(C)C	Activity at […], 10 µM	98%
C=CC(=O)Nc1cc(Nc2nccc(Nc3ccccc3S(=O)(=O)N(C)C)n2)c(OC)cc1N(C)CCN(C)C	Activity at […], 10 µM	85%
C=CC(=O)Nc1cc(Nc2ncc(F)c(Nc3ccccc3P(C)(C)=O)n2)c(OC)cc1N(C)CCN(C)C	Activity at […], 10 µM	> 100%
C=CC(=O)Nc1cc(Nc2ncc(I)c(Nc3ccccc3P(C)(C)=O)n2)c(OC)cc1N(C)CCN(C)C	Activity at […], 10 µM	99%
C=CC(=O)Nc1cc(Nc2ncc(Cl)c(Nc3ccccc3S(=O)(=O)N(C)C)n2)c(OC)cc1N(C)CCN(C)C	Activity at […], 10 µM	75%
C=CC(=O)Nc1cc(Nc2ncc(F)c(Nc3ccccc3S(=O)(=O)C(C)C)n2)c(OC)cc1N(C)CCN(C)C	Activity at […], 10 µM	93%
C=CC(=O)Nc1cc(Nc2nccc(Nc3ccccc3P(C)(C)=O)n2)c(OC)cc1N(C)CCN(C)C	Activity at […], 10 µM	> 100%
C=CC(=O)Nc1cc(Nc2ncc(I)c(Nc3ccccc3S(=O)(=O)C(C)C)n2)c(OC)cc1N(C)CCN(C)C	Activity at […], 10 µM	86%
C=CC(=O)Nc1cc(Nc2nccc(Nc3ccccc3S(=O)(=O)C(C)C)n2)c(OC)cc1N(C)CCN(C)C	Activity at […], 10 µM	87%
C=CC(=O)Nc1cc(Nc2ncc(Cl)c(Nc3ccccc3S(=O)(=O)C(C)C)n2)c(OC)cc1N(C)CCN(C)C	Activity at […], 10 µM	86%

###

Assay: Drug uptake in mouse plasma at 2 mg/kg, iv after 2 hrs
Format: ADME, organism-based

Smiles str	concentration at 2 h (nM)
C=CC(=O)Nc1cc(Nc2ncc(Cl)c(Nc3ccccc3S(=O)(=O)C(C)C)n2)c(OC)cc1N(C)CCN(C)C	100

###

Test: Half life in mouse at 2 mg/kg, iv
Type: ADME, organism-based
Conditions: in vivo

Smiles str	half-life / h
C=CC(=O)Nc1cc(Nc2ncc(Cl)c(Nc3ccccc3S(=O)(=O)C(C)C)n2)c(OC)cc1N(C)CCN(C)C	1.25

###

Experiment: Clearance in mouse at 2 mg/kg, iv
Format: ADME, organism-based
Conditions: in vivo

Smiles str	clearance
C=CC(=O)Nc1cc(Nc2ncc(Cl)c(Nc3ccccc3S(=O)(=O)C(C)C)n2)c(OC)cc1N(C)CCN(C)C	1.74 L/h/kg

###

Molecular target: CYP1A2 (Homo sapiens, UniProt P05177)
Sequence (P05177 whole entry): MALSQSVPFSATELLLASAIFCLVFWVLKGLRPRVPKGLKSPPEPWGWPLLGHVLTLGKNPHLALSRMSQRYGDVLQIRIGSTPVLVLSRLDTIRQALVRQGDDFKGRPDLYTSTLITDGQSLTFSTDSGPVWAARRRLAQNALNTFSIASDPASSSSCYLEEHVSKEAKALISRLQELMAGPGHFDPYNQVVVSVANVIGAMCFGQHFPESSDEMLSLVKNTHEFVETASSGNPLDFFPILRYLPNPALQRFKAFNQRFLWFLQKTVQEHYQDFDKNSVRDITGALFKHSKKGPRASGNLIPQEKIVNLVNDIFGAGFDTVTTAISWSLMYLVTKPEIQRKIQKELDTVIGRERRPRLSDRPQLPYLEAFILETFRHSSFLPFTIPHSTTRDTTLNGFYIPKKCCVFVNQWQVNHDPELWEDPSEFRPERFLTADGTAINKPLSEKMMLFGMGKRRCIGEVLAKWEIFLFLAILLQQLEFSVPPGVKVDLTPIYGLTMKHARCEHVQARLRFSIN
Test: Residual activity of CYP1A2 in human liver microsomes at 10 uM using phenacetin O-deethylase as substrate preincubated for 5 mins followed by NADPH addition measured after 15 mins by LC/MS/MS analysis relative to control
Details: probe phenacetin (O-deethylation)
Recorded measurements of Activity at […], 10 µM, one per entry
Observed property: Activity at […], 10 µM (%)

Smiles str	Test value
C=CC(=O)Nc1cc(Nc2ncc(Cl)c(Nc3ccccc3P(C)(C)=O)n2)c(OC)cc1N(C)CCN(C)C	93
C=CC(=O)Nc1cc(Nc2ncc(Cl)c(Nc3ccccc3S(=O)(=O)N(C)C)n2)c(OC)cc1N(C)CCN(C)C	87
C=CC(=O)Nc1cc(Nc2nccc(Nc3ccccc3S(=O)(=O)C(C)C)n2)c(OC)cc1N(C)CCN(C)C	80

###

Reported values of Activity at […], 10 µM for individual entries
Target: UniProt:P10635
Sequence (P10635 whole entry): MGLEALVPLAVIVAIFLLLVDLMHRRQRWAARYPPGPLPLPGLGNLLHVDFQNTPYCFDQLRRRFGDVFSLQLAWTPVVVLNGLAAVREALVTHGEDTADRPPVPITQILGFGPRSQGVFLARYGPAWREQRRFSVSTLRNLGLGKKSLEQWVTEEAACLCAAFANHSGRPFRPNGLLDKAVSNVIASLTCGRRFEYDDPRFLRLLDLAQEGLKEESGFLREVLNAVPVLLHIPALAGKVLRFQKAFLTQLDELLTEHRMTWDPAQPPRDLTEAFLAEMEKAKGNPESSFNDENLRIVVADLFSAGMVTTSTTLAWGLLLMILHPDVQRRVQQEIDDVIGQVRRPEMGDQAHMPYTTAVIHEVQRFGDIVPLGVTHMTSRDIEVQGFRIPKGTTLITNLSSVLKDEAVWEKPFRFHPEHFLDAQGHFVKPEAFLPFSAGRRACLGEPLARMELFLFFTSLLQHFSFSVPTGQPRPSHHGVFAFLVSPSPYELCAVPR
Assay: Residual activity of CYP2D6 in human liver microsomes at 10 uM using dextromethorphan O-demethylase as substrate preincubated for 5 mins followed by NADPH addition measured after 15 mins by LC/MS/MS analysis relative to control
Settings: probe dextromethorphan (O-demethylation)
Observed property: Activity at […], 10 µM (%)

Smiles str	Assayed target	Observed property	Unit abbreviation	Inequality symbol	Test value
C=CC(=O)Nc1cc(Nc2ncc(F)c(Nc3ccccc3P(C)(C)=O)n2)c(OC)cc1N(C)CCN(C)C	UniProt:P10635	Activity at […], 10 µM	%	>	100
C=CC(=O)Nc1cc(Nc2nccc(Nc3ccccc3P(C)(C)=O)n2)c(OC)cc1N(C)CCN(C)C	UniProt:P10635	Activity at […], 10 µM	%	=	87
C=CC(=O)Nc1cc(Nc2ncc(F)c(Nc3ccccc3S(=O)(=O)C(C)C)n2)c(OC)cc1N(C)CCN(C)C	UniProt:P10635	Activity at […], 10 µM	%	=	95
C=CC(=O)Nc1cc(Nc2ncc(I)c(Nc3ccccc3P(C)(C)=O)n2)c(OC)cc1N(C)CCN(C)C	UniProt:P10635	Activity at […], 10 µM	%	=	80
C=CC(=O)Nc1cc(Nc2ncc(Cl)c(Nc3ccccc3P(C)(C)=O)n2)c(OC)cc1N(C)CCN(C)C	UniProt:P10635	Activity at […], 10 µM	%	=	85
C=CC(=O)Nc1cc(Nc2ncc(I)c(Nc3ccccc3S(=O)(=O)C(C)C)n2)c(OC)cc1N(C)CCN(C)C	UniProt:P10635	Activity at […], 10 µM	%	=	82
C=CC(=O)Nc1cc(Nc2nccc(Nc3ccccc3S(=O)(=O)C(C)C)n2)c(OC)cc1N(C)CCN(C)C	UniProt:P10635	Activity at […], 10 µM	%	=	67
C=CC(=O)Nc1cc(Nc2ncc(I)c(Nc3ccccc3S(=O)(=O)N(C)C)n2)c(OC)cc1N(C)CCN(C)C	UniProt:P10635	Activity at […], 10 µM	%	=	93
C=CC(=O)Nc1cc(Nc2nccc(Nc3ccccc3S(=O)(=O)N(C)C)n2)c(OC)cc1N(C)CCN(C)C	UniProt:P10635	Activity at […], 10 µM	%	=	79
C=CC(=O)Nc1cc(Nc2ncc(Cl)c(Nc3ccccc3S(=O)(=O)N(C)C)n2)c(OC)cc1N(C)CCN(C)C	UniProt:P10635	Activity at […], 10 µM	%	=	88
C=CC(=O)Nc1cc(Nc2ncc(Cl)c(Nc3ccccc3S(=O)(=O)C(C)C)n2)c(OC)cc1N(C)CCN(C)C	UniProt:P10635	Activity at […], 10 µM	%	=	90
C=CC(=O)Nc1cc(Nc2ncc(F)c(Nc3ccccc3S(=O)(=O)N(C)C)n2)c(OC)cc1N(C)CCN(C)C	UniProt:P10635	Activity at […], 10 µM	%	>	100

Provenance of the data: ChEMBL document CHEMBL4382192
